The reader will find reported IC90 pNFκB, trun-IL-36g, BaF/3 cynomolgus IL-36R cells values listed item by item below.
- target or test system: cynomolgus IL-36R on BaF/3 cells (cynomolgus)
- assay info: cell-based or functional assay
property: IC90 pNFκB, trun-IL-36g, BaF/3 cynomolgus IL-36R cells

binder	observed
antibody 76E10 (antibody, V domains shown) VH: QVQLKESGPVLVAPSQSLSITCTVSGFSLTNYGVHWVRQPPGKGLEWLGVIWPVGSTNYNSALMSRLSIHKDNSKSQVFLRMNSLQTDDTAIYYCAKMDWDDFFDYWGQGTTLTVSS VL: DIVMTQSQKFMSATVGGRVNITCKASQNVGRAVAWYQQKPGQSPKLLTHSASNRYTGVPDRFTGSGSGTDFTLTITNMQSEDLADYFCQQYSSYPLTFGAGTKLDLK	> 333 nM
antibody 172C8 (antibody, V domains shown) VH: EVQLQQSGPELVKPGASVKLSCKASGYTFTDNYMNWVRQSHGKSLEWIGRVNPSNGDTKYNQNFKGKATLTVDKSLSTAYMQLNGLTSEDSAVYYCGRTKNFYSSYSYDDAMDYWGQGTSVTVSS VL: DIQMTQSPASQSASLGESVTFTCLASQTIGTWLAWYQQRPGKSPQLLIYAATSLADGVPSRFSGSGSGTQFSFNIRSLQAEDFASYYCQQVYTTPLTFGGGTKLEIK	> 333 nM
